system: Trichophyton mentagrophytes; assay: local in vivo efficacy in experimentally infected guinea pigs, dermal treatment; set-up: species or system Meerschweinchen (Stamm Pirbright white); conditions: Dermal 5 x 0.1 %; vehicle control side minus treated side
Readout: Mykosen (Durchmesser in mm) Differenz x1 - x2
Give the value in mm but do not write mm after it.

Req: Could you share which Mykosen (Durchmesser in mm) Differenz x1 - x2 value was measured for c1ccc(Oc2ccc(C3(Cn4ccnc4)CCc4ccccc43)cc2)cc1 (centres unmarked) [Verbindung 67 (Tab. 1)] ?
Resp: 7.5

Req: Could you share which Mykosen (Durchmesser in mm) Differenz x1 - x2 value was measured for Clc1ccccc1C(c1ccccc1)(c1ccccc1)n1ccnc1 [Clotrimazol, reference compound] ?
Resp: 7

Req: Could you share which Mykosen (Durchmesser in mm) Differenz x1 - x2 value was measured for c1ccc(-c2ccc(C3(Cn4ccnc4)CCCc4ccccc43)cc2)cc1 (centres unmarked) [Verbindung 60 (Tab. 1)] ?
Resp: 11

Req: Could you share which Mykosen (Durchmesser in mm) Differenz x1 - x2 value was measured for c1ccc(Oc2ccc(C3(Cn4ccnc4)CCCc4ccccc43)cc2)cc1 (centres unmarked) [Verbindung 70 (Tab. 1)] ?
Resp: 12.8

Req: Could you share which Mykosen (Durchmesser in mm) Differenz x1 - x2 value was measured for Clc1ccc(C2(Cn3ccnc3)CCCc3ccccc32)cc1 (centres unmarked) [Verbindung 20 (Tab. 1)] ?
Resp: 9.7
